Catalogue of IC50 readings, one per entry.
Target: dipeptidyl peptidase-IV (DPP-IV) from porcine kidney (Sus scrofa, UniProt P22411)
Construct: purchased Sigma Aldrich Inc. (St. Louis, MO. USA); host or cells: porcine kidney (tissue-derived enzyme)
Sequence (P22411 whole entry): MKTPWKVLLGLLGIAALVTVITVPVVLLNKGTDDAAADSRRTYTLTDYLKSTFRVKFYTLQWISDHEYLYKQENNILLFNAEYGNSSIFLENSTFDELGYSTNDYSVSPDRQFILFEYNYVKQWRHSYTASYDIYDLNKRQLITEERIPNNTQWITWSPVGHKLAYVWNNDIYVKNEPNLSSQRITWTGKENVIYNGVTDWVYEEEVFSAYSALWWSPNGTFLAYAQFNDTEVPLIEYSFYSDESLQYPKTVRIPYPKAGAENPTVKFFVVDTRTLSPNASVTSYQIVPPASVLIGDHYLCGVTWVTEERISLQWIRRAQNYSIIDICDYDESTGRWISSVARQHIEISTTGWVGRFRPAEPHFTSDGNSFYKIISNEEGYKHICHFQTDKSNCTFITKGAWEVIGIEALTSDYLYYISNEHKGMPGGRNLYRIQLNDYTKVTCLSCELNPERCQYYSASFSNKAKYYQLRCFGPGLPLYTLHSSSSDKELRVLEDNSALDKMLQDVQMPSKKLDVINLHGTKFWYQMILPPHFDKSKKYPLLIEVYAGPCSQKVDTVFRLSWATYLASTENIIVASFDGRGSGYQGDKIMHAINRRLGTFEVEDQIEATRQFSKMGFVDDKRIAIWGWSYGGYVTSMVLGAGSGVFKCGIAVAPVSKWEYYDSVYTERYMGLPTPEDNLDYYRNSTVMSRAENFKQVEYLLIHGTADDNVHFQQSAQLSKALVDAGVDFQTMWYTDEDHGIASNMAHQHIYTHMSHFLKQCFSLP
Test: Dipeptidyl peptidase-IV (DPP-IV) inhibitory assay (GP-p-NA substrate)
Assay type: biochemical
Conditions: molar value, in parentheses in Table 3
MEASURED PARAMETER: IC50 (µM)

> print(dat)
                                   molecule                              study.system  measure.unit  qualifier  endpoint.result
1            Oc1ccc(/C=C/c2cc(O)cc(O)c2)cc1  dipeptidyl peptidase-IV (DPP-IV) from porcine kidney (Sus scrofa, UniProt P22411)            µM          =             14.1
2  Oc1cc(O)c2c(c1)O[C@H](c1ccc(O)c(O)c1)[C@H](O)C2 [Epicatechin]  dipeptidyl peptidase-IV (DPP-IV) from porcine kidney (Sus scrofa, UniProt P22411)            µM          >               50
3  O=c1c(O)c(-c2ccc(O)c(O)c2)oc2cc(O)cc(O)c12  dipeptidyl peptidase-IV (DPP-IV) from porcine kidney (Sus scrofa, UniProt P22411)            µM          =             8.25
4                   O=C(O)c1cc(O)c(O)c(O)c1  dipeptidyl peptidase-IV (DPP-IV) from porcine kidney (Sus scrofa, UniProt P22411)            µM          >               50

* * *

Molecular target: α-glucosidase from Saccharomyces cerevisiae (Saccharomyces cerevisiae, UniProt P53341)
Construct: purchased Sigma Aldrich Inc. (St. Louis, MO. USA)
Sequence (P53341 whole entry): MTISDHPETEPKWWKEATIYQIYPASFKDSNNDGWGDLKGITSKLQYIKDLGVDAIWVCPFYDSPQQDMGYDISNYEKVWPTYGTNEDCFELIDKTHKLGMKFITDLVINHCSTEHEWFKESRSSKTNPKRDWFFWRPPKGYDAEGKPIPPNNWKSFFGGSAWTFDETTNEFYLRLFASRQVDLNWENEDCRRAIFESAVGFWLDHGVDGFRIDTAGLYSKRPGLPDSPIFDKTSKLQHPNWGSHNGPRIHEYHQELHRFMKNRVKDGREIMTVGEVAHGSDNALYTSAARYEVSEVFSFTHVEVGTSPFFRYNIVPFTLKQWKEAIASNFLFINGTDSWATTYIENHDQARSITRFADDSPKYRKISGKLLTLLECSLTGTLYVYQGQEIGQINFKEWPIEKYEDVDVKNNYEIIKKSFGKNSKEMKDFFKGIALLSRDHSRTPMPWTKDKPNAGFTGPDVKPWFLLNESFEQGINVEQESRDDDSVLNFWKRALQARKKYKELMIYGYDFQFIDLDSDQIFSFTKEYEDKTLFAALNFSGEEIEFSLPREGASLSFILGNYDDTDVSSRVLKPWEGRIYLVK
Assay: α-Glucosidase inhibitory assay (pNPG substrate)
Assay type: biochemical
Settings: IC50 α-Glucosidase
Text: Folin–Ciocalteu reagent was bought from Merck (Darmstadt, Germany). […] The inhibitory effects against α-glucosidase enzyme of crude extract, partitioned fractions, and all isolated pure compounds were examined according to previous assay. […] A microplate reader (DTX880 Multimode Detector, Beckman Coulter®, Wien, Austria) immediately measured the absorbance at 405 nm. […]
MEASURED PARAMETER: IC50

> print(dat)
               chem.smiles  measured.parameter  endpoint.result
1  O=C(O)c1cc(O)c(O)c(O)c1                IC50          > 25 µM

* * *

This section presents molecules with their documented IC50 values.
Molecular target: dipeptidyl peptidase-IV (DPP-IV) from porcine kidney (Sus scrofa)
Construct: purchased Sigma Aldrich Inc. (St. Louis, MO. USA); host or cells: porcine kidney (tissue-derived enzyme)
Assay: Dipeptidyl peptidase-IV (DPP-IV) inhibitory assay (GP-p-NA substrate)
Assay type: biochemical
MEASURED PARAMETER: IC50 (µM)

> print(dat)
                                   molecule  measured.parameter  qualifier  endpoint.result
1                   O=C(O)c1cc(O)c(O)c(O)c1                IC50          >               50
2            Oc1ccc(/C=C/c2cc(O)cc(O)c2)cc1                IC50          =             14.1
3  O=c1c(O)c(-c2ccc(O)c(O)c2)oc2cc(O)cc(O)c12                IC50          =             8.24
4  Oc1cc(O)c2c(c1)O[C@H](c1ccc(O)c(O)c1)[C@H](O)C2 [Epicatechin]                IC50          >               50
